- measured_target: T1, cyno FcRn/b2M (cyno, UniProt Q8SPV9 24-297; Q8SPW0 21-119, biotinylated)
- T1 construct: bought recombinant biotinylated protein (Immunitrack ITF05 or ACRO FCM-C82W5); also called cFcRn; cFcRn/cb2M
- T1 sequence (Q8SPV9 24-297 limits assumed, chain 1 of 2): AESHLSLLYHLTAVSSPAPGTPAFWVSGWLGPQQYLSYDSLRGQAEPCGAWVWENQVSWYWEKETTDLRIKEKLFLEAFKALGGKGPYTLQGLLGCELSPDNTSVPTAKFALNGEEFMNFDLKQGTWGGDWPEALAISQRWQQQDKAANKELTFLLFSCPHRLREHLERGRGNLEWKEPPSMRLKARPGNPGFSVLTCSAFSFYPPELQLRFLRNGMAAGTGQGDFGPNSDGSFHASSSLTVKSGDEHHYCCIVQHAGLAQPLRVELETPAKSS
- T1 sequence (Q8SPW0 21-119 limits assumed, chain 2 of 2): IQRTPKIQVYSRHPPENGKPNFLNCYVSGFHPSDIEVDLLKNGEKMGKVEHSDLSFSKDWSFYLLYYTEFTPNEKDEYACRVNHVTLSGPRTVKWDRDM
- protocol_summary: SPR off-rate; pH 7.4 vs pH 6.0;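 further: surface plasmon resonance with diluted periplasmic extracts flowed over ligand surfaces, 120 s association and 600–3600 s dissociation at 25 °C, running buffer containing 150 mM NaCl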
Tick TRUE if kd ratio pH 7.4/6.0 is 40 or greater. Tick FALSE if kd ratio pH 7.4/6.0 is less than 40.

Incoming: Exam item: decide whether the reported kd ratio pH 7.4/6.0 for T0263018B11 A33G (VHH, name in Kabat numbering, FLAG3-His6 tagged) VHH: EVQLVESGGGVVQPGGSLRLSCAASGFTFSSYGMYWVRQAPGKGLEWVSAISSGGGSTDYADSVKGRFTISRDNSKNTLYLQMNSLRPEDTALYYCAADTLYTSLTWYSYWGQGTLVTVSS is at least 40.
Outgoing: FALSE

Incoming: Check the entry T0263018B11 S56G (VHH, name in Kabat numbering, FLAG3-His6 tagged) VHH: EVQLVESGGGVVQPGGSLRLSCAASGFTFSSYAMYWVRQAPGKGLEWVSAISSGGGGTDYADSVKGRFTISRDNSKNTLYLQMNSLRPEDTALYYCAADTLYTSLTWYSYWGQGTLVTVSS : does kd ratio pH 7.4/6.0 equal or exceed 40?
Outgoing: TRUE

Incoming: Does the reported kd ratio pH 7.4/6.0 for T0263018B11 T57W (VHH, name in Kabat numbering, FLAG3-His6 tagged) VHH: EVQLVESGGGVVQPGGSLRLSCAASGFTFSSYAMYWVRQAPGKGLEWVSAISSGGGSWDYADSVKGRFTISRDNSKNTLYLQMNSLRPEDTALYYCAADTLYTSLTWYSYWGQGTLVTVSS fall at or above the 40 mark?
Outgoing: FALSE

Incoming: Say whether T0263018B11 Y32T (VHH, name in Kabat numbering, FLAG3-His6 tagged) VHH: EVQLVESGGGVVQPGGSLRLSCAASGFTFSSTAMYWVRQAPGKGLEWVSAISSGGGSTDYADSVKGRFTISRDNSKNTLYLQMNSLRPEDTALYYCAADTLYTSLTWYSYWGQGTLVTVSS shows kd ratio pH 7.4/6.0 of 40 or more.
Outgoing: TRUE

Incoming: Exam item: decide whether the reported kd ratio pH 7.4/6.0 for T0263018B11 S31G (VHH, name in Kabat numbering, FLAG3-His6 tagged) VHH: EVQLVESGGGVVQPGGSLRLSCAASGFTFSGYAMYWVRQAPGKGLEWVSAISSGGGSTDYADSVKGRFTISRDNSKNTLYLQMNSLRPEDTALYYCAADTLYTSLTWYSYWGQGTLVTVSS is at least 40.
Outgoing: TRUE

Incoming: Textbook exercise: given the entry T0263018B11 G55D (VHH, name in Kabat numbering, FLAG3-His6 tagged) VHH: EVQLVESGGGVVQPGGSLRLSCAASGFTFSSYAMYWVRQAPGKGLEWVSAISSGGDSTDYADSVKGRFTISRDNSKNTLYLQMNSLRPEDTALYYCAADTLYTSLTWYSYWGQGTLVTVSS , state whether its kd ratio pH 7.4/6.0 is greater than or equal to 40.
Outgoing: TRUE

Incoming: Hello, I need to know if T0263018B11 S52V (VHH, name in Kabat numbering, FLAG3-His6 tagged) VHH: EVQLVESGGGVVQPGGSLRLSCAASGFTFSSYAMYWVRQAPGKGLEWVSAIVSGGGSTDYADSVKGRFTISRDNSKNTLYLQMNSLRPEDTALYYCAADTLYTSLTWYSYWGQGTLVTVSS has measured kd ratio pH 7.4/6.0 not below 40. Thanks!
Outgoing: FALSE
